test: qHTS Assay for Anthrax Lethal Toxin Internalization; conditions: Cells, FRET ratio (460/530); series mostly up to 40 µM; also: % is scaled to controls: 0 for no effect and ±100 for the full control effect; nearly all actives have a fitted effect of over 50% in size
In all, about 70,000 compounds went through this assay and about 470 (0.67%) were called active. Not shown: some 18% with an inconclusive outcome. Many of the other results were omitted from the sample, so actives are more common in it than they were.
Value Kind: activity change, negative = inhibition

[[record]]
compound = "Cn1c(=O)n2n(c1=O)[C@H]1[C@H](O)[C@H]3O[C@H]3C(=O)[C@H]1CC2"
reported = "12.4% [at 8 µM] (inactive)"

[[record]]
compound = "CCCCCCCCCCCC(=O)O"
reported = "inactive"

[[record]]
compound = "CCC[C@@H]1C[C@@]1(CCC)C(NS(=O)(=O)c1cccc2cccnc12)c1ccc(Cl)cc1 (stereo partly drawn)"
reported = "inactive"

[[record]]
compound = "Cc1cccc(Br)c1"
reported = "inactive"

[[record]]
compound = "CC(=O)N1CCC2(CCCN(Cc3ccccc3)C2)CC1"
reported = "inactive"


input: Give the value of activity change, negative = inhibition reported for the following: C/C=C1\C(=O)C[C@@H]2[C@@H]3CCC4=CC(=O)CC[C@@]4(C)[C@H]3CC[C@@]12C
output: inactive

input: Give the measured activity change, negative = inhibition for CC(=O)CC(C)C
output: inactive

input: For the compound Cc1c(NC(=O)Nc2ccccc2Cl)sc(=S)n1C , give its reported activity change, negative = inhibition.
output: inactive

input: For C[C@]1(C(=O)NCCc2c[nH]c3ccccc23)C=C[C@@H](Cc2ccccc2)N1C(=O)c1ccccc1 , write its activity change, negative = inhibition.
output: inactive

input: Let me know recorded activity change, negative = inhibition for O=C(Cl)c1ccc([N+](=O)[O-])cc1 , thanks.
output: inactive

input: Item CCCOC(=O)Nc1ccccc1C(N)=O : provide activity change, negative = inhibition
output: inactive

input: Answer with the recorded activity change, negative = inhibition of CN(C)CCSS(=O)(=O)O only.
output: -2.2% [at 8 µM] (inactive)

input: Identify measured activity change, negative = inhibition associated with CCCC[C@H]1C(=O)N(c2ccccc2)N(c2ccc(O)cc2)C1=O
output: -4.13% [at 3.58 µM] (inactive)
